Hello, the source for this data is patent US20220281848A1, in case you need it.

I'd appreciate it if you could supply damage to plant (100=total damage to plant; 0=no damage to plant), BRAPL values for the items below.
tested on: plants; test: Test D pre-emergence, other plants of Tables D1 and D3; format: in vivo; details: BRAPL; preemergent; rate 15; 20 DAA
Answer as a number with no unit attached.

Provide one value: measured damage to plant (100=total damage to plant; 0=no damage to plant), BRAPL of CN1CC(c2cc(C(F)(F)F)n(C)n2)C(C(=O)Nc2cccc(F)c2F)C1=O (racemic)
20

Tell me damage to plant (100=total damage to plant; 0=no damage to plant), BRAPL reported for CN1CC(c2cnn(C)c2C(F)(F)F)C(C(=O)Nc2cccc(F)c2F)C1=O (racemic)
0

Please supply the value of reported damage to plant (100=total damage to plant; 0=no damage to plant), BRAPL for the item CN1CC(c2cc(C(F)(F)F)n(C)n2)C(C(=O)Nc2cccc(F)n2)C1=O (racemic)
0

Please give measured damage to plant (100=total damage to plant; 0=no damage to plant), BRAPL of the following entry: CCn1nc([C@H]2CN(C)C(=O)[C@@H]2C(=O)Nc2cccc(F)c2F)c2c(F)cccc21
0

Answer with the recorded damage to plant (100=total damage to plant; 0=no damage to plant), BRAPL of CN1CC(c2cc(C(F)(F)F)n(C)n2)C(C(=O)Nc2ccc(F)cc2C(C)(F)F)C1=O (racemic) only.
0
